Molecular target: N-terminally GST-tagged HCK (75-526) (Homo sapiens (Human), UniProt P08631)
Sequence (P08631 75-526): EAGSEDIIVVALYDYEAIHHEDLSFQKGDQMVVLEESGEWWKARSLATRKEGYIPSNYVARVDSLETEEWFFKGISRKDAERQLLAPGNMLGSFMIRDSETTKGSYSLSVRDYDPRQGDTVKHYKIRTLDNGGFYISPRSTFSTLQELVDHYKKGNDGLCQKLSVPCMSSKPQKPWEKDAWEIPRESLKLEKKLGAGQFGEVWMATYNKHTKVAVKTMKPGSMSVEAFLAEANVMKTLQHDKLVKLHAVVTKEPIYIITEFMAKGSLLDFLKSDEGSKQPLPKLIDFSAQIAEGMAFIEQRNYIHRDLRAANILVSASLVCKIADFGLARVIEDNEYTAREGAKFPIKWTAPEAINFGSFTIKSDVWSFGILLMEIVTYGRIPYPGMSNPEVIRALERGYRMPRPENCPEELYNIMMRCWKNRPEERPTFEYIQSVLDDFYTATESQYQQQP
Assay: HCK Kinase Assay (ProFluor Src-Family Kinase Assay)
Type: biochemical
Settings: 50 μM ATP; read-out: HCK IC50
metric-name: IC50 (nM)

Some solved entries appear below for comparison.
[[record]]
smiles_entry = "CN1CCN([C@H]2CC[C@H](n3cc(-c4ccc(Oc5ccccc5)cc4)c4c(N)ncnc43)CC2)CC1"
metric_name = "IC50"
numeric_value = 3.3

[[record]]
smiles_entry = "C[C@@H]1CN([C@H]2CC[C@H](n3nc(-c4ccc(Oc5ccccc5)cc4F)c4c(N)ncnc43)CC2)CCN1"
metric_name = "IC50"
numeric_value = 16.5

[[record]]
smiles_entry = "CN1CCN([C@H]2CC[C@H](c3nc(-c4ccc(Oc5ccccc5)cc4F)c4c(N)ncnn43)CC2)CC1"
metric_name = "IC50"
numeric_value = 1.1

[[record]]
smiles_entry = "C[C@H]1CN([C@H]2CC[C@H](n3nc(-c4ccc(Oc5ccccc5)cc4)c4c(N)ncnc43)CC2)CCN1"
metric_name = "IC50"
numeric_value = 43

[[record]]
smiles_entry = "C[C@H]1CN([C@H]2CC[C@H](n3nc(-c4ccc(Oc5ccccc5)cc4F)c4c(N)ncnc43)CC2)CCN1"
metric_name = "IC50"
numeric_value = 5.1

[[record]]
smiles_entry = "CN1CCN([C@H]2CC[C@H](n3nc(-c4ccc(Oc5ccccc5)cc4F)c4c(N)ncnc43)CC2)CC1"
metric_name = "IC50"
numeric_value = 4.1


[I] C[C@H]1CN([C@H]2CC[C@H](c3nc(-c4ccc(Oc5ccccc5)cc4F)c4c(N)ncnn43)CC2)CCN1
[II] C[C@H]1CN([C@H]2CC[C@H](n3cc(-c4ccc(Oc5ccccc5)cc4)c4c(N)ncnc43)CC2)CCN1
Two entries are listed, I and II . Which one carries the higher IC50? Pick one and reply with its label.
II

---

Molecular target: N-terminally GST-tagged HCK (75-526) (Homo sapiens (Human))
Experiment: HCK Kinase Assay (ProFluor Src-Family Kinase Assay)
Assay type: biochemical
Details: HCK inhibitory activity, 50 μM ATP; read-out: HCK Activity
Attribute: IC50

Some solved entries appear below for comparison.
[[record]]
compound = "Nc1ncnc2c1c(-c1ccc(Oc3ccccc3)cc1)cn2[C@H]1CC[C@H](N2CCC[C@H](N)C2)CC1"
result = "< 50 nM"

[[record]]
compound = "CN1CCC(N2CCC(n3nc(-c4ccc(NC(=O)Nc5cc(C(C)(C)C)on5)cc4)c4c(N)ncnc43)CC2)CC1"
result = "50 to 250 nM"

[[record]]
compound = "CN1CCN([C@H]2CC[C@H](n3cc(-c4ccc(Cc5ccccc5)cc4)c4c(N)ncnc43)CC2)CC1"
result = "< 50 nM"

[[record]]
compound = "Nc1ncnc2c1c(-c1ccc(Oc3ccccc3)cc1)cn2[C@H]1CC[C@H](N2C[C@@H](O)[C@@H](O)C2)CC1"
result = "50 to 250 nM"

[[record]]
compound = "C[C@@H]1CN([C@H]2CC[C@H](n3cc(-c4ccc(Oc5ccccc5)cc4F)c4c(N)ncnc43)CC2)CCN1"
result = "< 50 nM"

[[record]]
compound = "C[C@H]1CN([C@H]2CC[C@H](n3cc(-c4ccc(Oc5ccccc5)cc4)c4c(N)ncnc43)CC2)CCN1"
result = "< 50 nM"


Reported IC50 for CN1CCN([C@H]2CC[C@H](c3nc(-c4ccc(Oc5ccccc5)cc4)c4c(N)nccn43)CC2)CC1 : what is it?
< 50 nM

---

Target: N-terminally GST-tagged HCK (75-526) (Homo sapiens (Human), UniProt P08631)
Test: HCK Kinase Assay (ProFluor Src-Family Kinase Assay)
Format: biochemical
Conditions: HCK inhibitory activity, 50 μM ATP; read-out: HCK Activity
metric-name: IC50

Some solved entries appear below for comparison.
[[record]]
compound = "C[C@H]1CN([C@H]2CC[C@@H](n3cc(-c4ccc(NC(=O)Nc5cc(C(C)(C)C)on5)cc4)c4c(N)ncnc43)CC2)CCN1"
result = "50 to 250 nM"

[[record]]
compound = "CN1CCOC(C2CCC(n3cc(-c4ccc(Oc5ccccc5)cc4)c4c(N)ncnc43)CC2)C1 (centres unmarked)"
result = "< 50 nM"

[[record]]
compound = "CN1CCN([C@H]2CC[C@@H](c3cc(-c4ccc(NC(=O)Nc5cc(C(C)(C)C)on5)cc4)c4c(N)ncnn43)CC2)CC1"
result = "< 50 nM"


Reported IC50 for CC(=O)NN1CCN([C@H]2CC[C@H](n3cc(-c4ccc(Oc5ccccc5)cc4)c4c(N)ncnc43)CC2)CC1 : what is it?
< 50 nM

Request: Nc1ncnc2c1c(-c1ccc(Oc3ccccc3)cc1)cn2C1CCC2(CCNCC2)CC1
< 50 nM

---

Molecular target: N-terminally GST-tagged HCK (75-526) (Homo sapiens (Human))
Experiment: HCK Kinase Assay (ProFluor Src-Family Kinase Assay)
Format: biochemical
Conditions: HCK inhibitory activity, 50 μM ATP; read-out: HCK Activity
pIC50: −log10 of the molar value.
metric-name: pIC50

Some solved entries appear below for comparison.
[[record]]
compound = "CC(C)c1cc(NC(=O)Nc2ccc(-c3cn([C@H]4CC[C@H](N5CCN(C)CC5)CC4)c4ncnc(N)c34)cc2)no1"
result = "> 7.30"

[[record]]
compound = "Nc1ncn([C@H]2CC[C@@H](n3cc(-c4ccc(Oc5ccccc5)cc4)c4c(N)ncnc43)CC2)n1"
result = "> 7.30"

[[record]]
compound = "Nc1ncnc2c1c(-c1ccc(Oc3ccccc3)cc1)cn2[C@H]1CC[C@H](N2CCC3(CCNC3)C2)CC1 (relative stereo)"
result = "6.60 to 7.30"

[[record]]
compound = "CN1CCN([C@H]2CC[C@H](n3nc(-c4c(F)cc(Oc5ccccc5)cc4F)c4c(N)ncnc43)CC2)CC1"
result = "> 7.30"


Now, please, on to the next compound.
Reported pIC50 for CC1(N)CCN([C@H]2CC[C@@H](n3cc(-c4ccc(Oc5ccccc5)cc4)c4c(N)ncnc43)CC2)CC1 : what is it?
> 7.30

---

Molecular target: N-terminally GST-tagged HCK (75-526) (Homo sapiens (Human))
Experiment: HCK Kinase Assay (ProFluor Src-Family Kinase Assay)
Assay type: biochemical
Conditions: HCK inhibitory activity, 50 μM ATP; read-out: HCK Activity
Attribute: IC50

Some solved entries appear below for comparison.
[[record]]
compound = "COc1cc(-c2cn([C@H]3CO[C@@H](C4CCN(C)CC4)OC3)c3ncnc(N)c23)ccc1Oc1ccccc1"
result = "< 50 nM"

[[record]]
compound = "Nc1ncnc2c1c(-c1ccc(Oc3ccccc3)cc1)cn2[C@H]1CC[C@H](N2CCS(=O)(=O)CC2)CC1"
result = "50 to 250 nM"

[[record]]
compound = "C[C@H]1CN([C@H]2CC[C@H](n3nc(-c4ccc(Oc5ccccc5)cc4F)c4c(N)ncnc43)CC2)CCN1"
result = "< 50 nM"

[[record]]
compound = "CNC(=O)CC1(NC)CCC(n2cc(-c3ccc(Oc4ccccc4)cc3)c3c(N)ncnc32)CC1 (stereo not drawn)"
result = "< 50 nM"

[[record]]
compound = "CC1CN([C@H]2CC[C@H](n3cc(-c4ccc(Oc5ccccc5)cc4)c4c(N)ncnc43)CC2)CCN1C (stereo partly drawn)"
result = "< 50 nM"


Reported IC50 for Nc1ncnc2c1c(-c1ccc(Oc3ccccc3)cc1)cn2[C@H]1CC[C@H](N2CCN(N)CC2)CC1 : what is it?
< 50 nM

Request: CCN1CCN([C@H]2CC[C@H](n3nc(-c4ccc(Oc5ccccc5)cc4F)c4c(N)ncnc43)CC2)CC1
< 50 nM

Request: Nc1ncnc2c1c(-c1ccc(Oc3ccccc3)cc1)cn2[C@H]1CC[C@@H](N2CCN3CCCC3C2)CC1 (stereo partly drawn)
250 to 10000 nM

Request: Nc1ncnc2c1c(-c1ccc(Oc3ccccc3)cc1)cn2[C@H]1CC[C@H](N2CC(N)C2)CC1
< 50 nM

Request: [2H]c1c([2H])c([2H])c(Oc2ccc(-c3cn([C@H]4CC[C@H](N5CCN[C@@H](C)C5)CC4)c4ncnc(N)c34)cc2)c([2H])c1[2H]
< 50 nM

Request: NCC1OCC(N2CCC(n3cc(-c4ccc(Oc5ccccc5)cc4)c4c(N)ncnc43)CC2)CO1 (stereo not drawn)
< 50 nM

Request: CN1CC2(C1)CN([C@H]1CC[C@@H](n3cc(-c4ccc(Oc5ccccc5)cc4)c4c(N)ncnc43)CC1)C2
250 to 10000 nM

---

Attribute: IC50
Biological target: N-terminally GST-tagged HCK (75-526) (Homo sapiens (Human))
Assay: HCK Kinase Assay (ProFluor Src-Family Kinase Assay)
Format: biochemical
Conditions: HCK inhibitory activity, 50 μM ATP; read-out: HCK Activity

[[record]]
compound = "CN1CCN([C@H]2CC[C@@H](c3cc(-c4ccc(Oc5ccccc5)cc4)c4c(N)ncnn43)CC2)CC1"
system_under_test = "N-terminally GST-tagged HCK (75-526) (Homo sapiens (Human))"
result = "250 to 10000 nM"

[[record]]
compound = "Nc1ncnc2c1c(-c1ccc(Oc3ccccc3)cc1F)nn2[C@H]1CC[C@H](N2CCN(CCO)CC2)CC1"
system_under_test = "N-terminally GST-tagged HCK (75-526) (Homo sapiens (Human))"
result = "< 50 nM"

[[record]]
compound = "CN1CCN([C@H]2CC[C@H](n3cc(-c4ccc(C(O)c5ccccc5)cc4)c4c(N)ncnc43)CC2)CC1 (stereo partly shown)"
system_under_test = "N-terminally GST-tagged HCK (75-526) (Homo sapiens (Human))"
result = "< 50 nM"

[[record]]
compound = "C[N+]1(C)CCN([C@H]2CC[C@@H](n3nc(-c4ccc(Oc5ccccc5)cc4F)c4c(N)ncnc43)CC2)CC1"
system_under_test = "N-terminally GST-tagged HCK (75-526) (Homo sapiens (Human))"
result = "50 to 250 nM"

[[record]]
compound = "Nc1ncnc2c1c(-c1ccc(Oc3ccccc3)cc1)cn2[C@H]1CC[C@H](NC2CNC2)CC1"
system_under_test = "N-terminally GST-tagged HCK (75-526) (Homo sapiens (Human))"
result = "50 to 250 nM"

[[record]]
compound = "CC[C@H]1CN([C@H]2CC[C@H](n3nc(-c4ccc(Oc5ccccc5)cc4F)c4c(N)ncnc43)CC2)CCN1"
system_under_test = "N-terminally GST-tagged HCK (75-526) (Homo sapiens (Human))"
result = "< 50 nM"


Reported IC50 for CNC(=O)C=C1CCC(n2cc(-c3ccc(Oc4ccccc4)cc3)c3c(N)ncnc32)CC1 (stereo not shown) : what is it?
< 50 nM

Request: C[C@H]1CN([C@H]2CC[C@@H](n3cc(-c4ccc(Oc5ccccc5)cc4)c4c(N)ncnc43)CC2)CCN1
< 50 nM

Request: CP1(=O)CCN([C@H]2CC[C@@H](n3cc(-c4ccc(Oc5ccccc5)cc4)c4c(N)ncnc43)CC2)CC1
< 50 nM

Request: CN1CCCC(N2CCC(n3cc(-c4ccc(Oc5ccccc5)cc4)c4c(N)ncnc43)CC2)C1 (stereo not shown)
50 to 250 nM

Values from patent US11963960B2
